This collection of values is drawn from patent US8981094B2.

The molecules listed here are annotated with their melting point.
Write the answer as a number in °C, unit excluded.

Completed entries (count: 3):
Molecule	Measured Attribute	Recorded Value
O=C(CCCc1ccccc1)Nc1ccc(N2CCN(C(=O)Nc3c(F)cc(Br)cc3Br)CC2)cc1	melting point	218.6
O=C(CCCc1ccccc1)Nc1ccc(N2CCN(C(=O)C(O)c3ccccc3Cl)CC2)cc1 (centres unmarked)	melting point	142.3
O=C(CCCc1ccccc1)Nc1ccc(N2CCN(C(=O)Nc3ccccc3)CC2)cc1	melting point	219.91

Moving on to another molecule below.
Please look up its melting point: O=C(CCC(O)c1ccccc1)Nc1ccc(N2CCN(C(=O)Cc3c(Cl)cccc3Cl)CC2)cc1 (centres unmarked) 200.57
